Data provenance is PubChem BioAssay.

assay: basal HepG2 mitochondrial membrane potential changes, profiling panel, cell-based, JC-1 fluorescence, 24 h, 100 nL compound (AID 1167); conditions: higher = more signal; note: test concentration not given here
Measured z-score, listed per entry.
Output: the number by itself.

1. O=C1C2C=CC(C(O)C3CCCCC3)N(Nc3ccccc3F)C2C(=O)N1c1ccccc1 (centres undefined) : -0.804
2. C=CCNC(=O)[C@@H]1[C@H]2C(=O)O[C@H](c3ccccc3)[C@H](c3ccccc3)N2[C@H](c2ccc(O)cc2)[C@@]12C(=O)N(C(=O)OCCOC)c1ccc(C#CCC(C(=O)OC)C(=O)OC)cc12 : 0.206
3. COc1ccc(C(O)C2C=CC3C(=O)N(C)C(=O)C3N2Nc2ccccc2)cc1 (centres undefined) : -1.27

[in] Consider the molecule shown here: `O=C1O[C@@H](c2ccccc2)[C@@H](c2ccccc2)N2[C@@H](c3ccc(OCCO)cc3)[C@]3(C(=O)Nc4ccc(C#CC5=CCCCC5)cc43)[C@@H](C(=O)Nc3nc4ccccc4s3)[C@H]12` What is its recorded z-score?
[out] -3.08

* * *

biological target: Torsin-1A-interacting protein 2 (Homo sapiens) (UniProt Q8NFQ8); assay: LULL1 binders on small-molecule microarray, primary screen, cell lysate, human LULL1 lysate, 635/667 nm fluorescence (AID 1092); settings: hLULL1 lysate binding, 635 nm fluorescence, higher = more signal;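 note: probe is lysate of COS7 cells overexpressing human LULL1; score merges per-feature 667 nm fluorescence with signal-to-noise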
Sequence (Q8NFQ8 whole entry, looked up): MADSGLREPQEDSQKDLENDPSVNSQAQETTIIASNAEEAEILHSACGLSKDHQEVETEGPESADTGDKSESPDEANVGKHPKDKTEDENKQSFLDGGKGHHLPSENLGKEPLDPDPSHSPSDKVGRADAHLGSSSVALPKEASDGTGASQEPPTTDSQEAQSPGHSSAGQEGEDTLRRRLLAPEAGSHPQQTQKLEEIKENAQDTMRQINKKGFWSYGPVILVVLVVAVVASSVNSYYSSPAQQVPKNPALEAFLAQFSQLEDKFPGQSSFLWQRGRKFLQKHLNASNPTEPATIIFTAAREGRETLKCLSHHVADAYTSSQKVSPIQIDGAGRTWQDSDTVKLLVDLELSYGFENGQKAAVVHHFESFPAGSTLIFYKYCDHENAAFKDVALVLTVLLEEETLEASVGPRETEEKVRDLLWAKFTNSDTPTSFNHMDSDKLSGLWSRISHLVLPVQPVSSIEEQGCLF
# reported composite z-score; entries follow
Lab note: write the figure by itself, no unit.

Please review the entries below; each comes with its answer.
1. COc1ccc(C#Cc2ccc3c(c2)[C@]2(C(=O)N3)[C@H](c3ccccc3OCCO)N3[C@H](c4ccccc4)[C@H](c4ccccc4)OC(=O)[C@H]3[C@@H]2C(=O)NC[C@H](O)c2ccccc2)cc1 : 3
2. CCc1cccc(NC(=O)O[C@H]2[C@H](OC(=O)Nc3ccccc3-c3ccccc3)[C@H](OC(=O)Nc3ccccc3-c3ccccc3)[C@@H](OC)O[C@@H]2CO)c1 : 2.91

[in] Quick check: composite z-score of `C=CCNC(=O)[C@@H]1[C@H]2C(=O)O[C@H](c3ccccc3)[C@H](c3ccccc3)N2[C@H](c2ccc(OCCO)cc2)[C@@]12C(=O)Nc1ccc(C#CC3=CCCCC3)cc12` ?
[out] 2.94

* * *

Readings of composite z-score for the listed molecules
tested on: Wnt5a (protein binding on small-molecule microarray); experiment: Wnt5a binders on small-molecule microarray, primary screen, biophysical, 635/667 nm fluorescence (AID 1142); conditions: 635 nm fluorescence, higher = more signal;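 note: fluorescence read at 667 nm with signal to noise per printed feature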
Answer with a bare number; do not write a unit.

See these solved cases before continuing.
1) C=CC[C@H](O)c1ccc(O)c(F)c1 : -0.863
2) COc1cc2c(cc1O)C(C)N(Cc1sc3ccccc3c1Cl)CC2 (centres undefined) : -0.434
3) COCCCNC(=O)[C@@]1(Cc2ccccc2I)c2ccccc2C(=O)N(C2CCCCC2)[C@H]1c1ccc(CO)cc1 : 0.665
4) C=CCC(OC(C)=O)[C@@H]1[C@@H](N(Cc2ccc(-c3ccccc3)cc2)C(=O)Cc2ccc(OC)cc2)c2cc(OCCCO)ccc2N1C(=O)c1ccc2ccccc2c1 (some centres undefined) : -0.0966
5) CCCC1(C(=O)OC)C=C2C(=C(C(C)C)C(=O)C2C)CN1 (centres undefined) : -0.0597

Then there is this molecule:
[in] Form field: composite z-score recorded for `C=CCOC(=O)[C@H]1[C@@H]2C(=O)O[C@@H](c3ccccc3)[C@@H](c3ccccc3)N2[C@@H](c2ccc(OCCOC(=O)[C@@H]3C[C@@H]4C(=O)N[C@@H](Cc5ccccc5)C(=O)N4[C@@H]3c3ccc(O)cc3)cc2)[C@]12C(=O)Nc1ccc(I)cc12` with Wnt5a (protein binding on small-molecule microarray) (enter value)
[out] 0.305
